- PROTOCOL NOTES: small-molecule binders of probe aLefty1, primary screen, biochemical, small-molecule microarray, 635/667 nm fluorescence (AID 1153);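 also: score merges spot fluorescence with signal-to-noise ratio from the scanned slide images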
- DETAILS: higher = more signal
ASSAY ENDPOINT: composite z-score
A bare number is all that is needed in reply.

The compound identified as COc1cc(OC)c(C(O)C2C=CC3C(=O)N(c4ccccc4)C(=O)C3N2Nc2ccccc2)cc1Br (stereo not given) registered its composite z-score at 0.0834

The compound identified as CC(CO)N1C(=O)[C@@H]2[C@H]3C(=O)OCC=C[C@H]3OC23C=CCN(Cc2ccccc2)C(=O)[C@@H]13 (stereo not given in full) registered its composite z-score at -0.191

The compound identified as COCCOC(=O)N1C(=O)[C@@]2(c3cc(C#CCC(C(=O)OC)C(=O)OC)ccc31)[C@H](C(=O)N1CCc3cc(OC)c(OC)cc3C1)[C@H]1C(=O)O[C@H](c3ccccc3)[C@H](c3ccccc3)N1[C@@H]2c1ccc(OCCO)cc1 registered its composite z-score at 0.54

The compound identified as O=C(CS)NCCCCCNC(=O)[C@@H]1C[C@@H]2C(=O)N3CCC[C@H]3C(=O)N2[C@@H]1c1cccc(OCCO)c1 registered its composite z-score at -0.781

The compound identified as COC(=O)C1=CC(CCCO)=CC(C2CC2)N(C)C=C1C(=O)OC (stereo not given) registered its composite z-score at -0.35

The compound identified as O[C@@H](Cc1ccccc1)[C@@H](/C=C/C1CC1)N(CC#Cc1ccccc1)Cc1cccc(Cl)c1 registered its composite z-score at 0.161

The compound identified as CN(C)CCCNC(=O)[C@@]1(C)c2ccccc2C(=O)N(Cc2ccccc2)[C@H]1c1ccc(CO)cc1 registered its composite z-score at -0.146

The compound identified as CCOC(=O)C1CCCCN1 (stereo not given) registered its composite z-score at 1.08

The compound identified as C=CCC(OC(C)=O)[C@@H]1[C@@H](N(Cc2cc3ccccc3o2)C(=O)c2ccc(C)cc2)c2cc(OCCCO)ccc2N1C(=O)Cc1ccc(OC)cc1 (stereo not given in full) registered its composite z-score at 0.25

The compound identified as N#Cc1ccc(NN2C(C(O)c3ccc(F)cc3)C=CC3C(=O)N(c4ccccc4)C(=O)C32)cc1 (stereo not given) registered its composite z-score at 1.03

The compound identified as O=C1O[C@@H](c2ccccc2)[C@@H](c2ccccc2)N2[C@@H](c3ccc(O)cc3)[C@]3(C(=O)Nc4ccc(C#CC5=CCCCC5)cc43)[C@@H](C(=O)NC[C@H](O)c3ccccc3)[C@H]12 registered its composite z-score at 0.15

The compound identified as COc1cc2c(cc1OC)CN(C(=O)[C@@H]1[C@H]3C(=O)O[C@H](c4ccccc4)[C@H](c4ccccc4)N3[C@H](c3ccc(OCCO)cc3)[C@@]13C(=O)Nc1ccccc13)CC2 registered its composite z-score at 0.534

The compound identified as O=C1NC(=O)C2C1C=CC(C(O)CCc1ccccc1)N2Nc1ccc(Cl)cc1Cl (stereo not given) registered its composite z-score at -0.0162

The compound identified as COCCCNC(=O)[C@@]1(Cc2ccccc2CN=[N+]=[N-])N=C(c2ccc(OCCCO)cc2)O[C@H]1c1ccccc1 registered its composite z-score at 0.197

The compound identified as COC(=O)c1c2oc(c1C(=O)OC)C(=O)N(Cc1ccccc1)Cc1cn(nn1)C[C@H](Cc1ccccc1)NC(=O)N[C@H](CO)CC2 registered its composite z-score at -0.0942
